- Measured Target: T1, Soluble TSHR (22-260) protein (human, UniProt P16473 22-260)
- T1 construct: range 22-260
- Assay Procedure: SPR (Biacore T200, 25 C), antibody captured on anti-human Fc, soluble TSHR (22-260) as analyte, 1:1 fit;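 further: antibodies captured at 0.1 ug/mL on a CM5 sensor chip bearing anti-human Fc, with HBS-EP+ running buffer at pH 7.4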
Examples of binders with documented Kd follow.
Give just the number in nM; leave the unit off.

Query: Which Kd value belongs to TSHB-19 (antibody, V domains shown) VH: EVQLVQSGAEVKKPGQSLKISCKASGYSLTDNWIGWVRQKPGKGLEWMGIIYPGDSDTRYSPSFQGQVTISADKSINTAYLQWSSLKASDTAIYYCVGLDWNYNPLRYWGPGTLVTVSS VL: QSVLTQPPSVSAAPGQKVTISCSGSSSDIGSNWVSWYQQLPGTAPKLLIYDNNKRPSGIPDRFSGSKSGTSATLGITGLQTGDEADYYCGTWDSRLGIAVFGGGTQLTVL ?
Reply: 3.12

Please look at the following binder next.
Query: Which Kd value belongs to TSHB-23 (antibody, V domains shown) VH: EVQLVQSGAEVKKPGESLKISCKASGYSLTDNWIGWVRQKPGKGLEWMGIIYPGDSDTRYSPSFQGQVTISADKSISTAYLQWSSLKASDTAIYYCVGLDWNYNPLRYWGQGTLVTVSS VL: QSVLTQPPSVSAAPGQKVTISCSGSSSDIGSNYVSWYQQLPGTAPKLLIYDNNKRPSGIPDRFSGSKSGTSATLGITGLQTGDEADYYCGTWDSRLGIAVFGGGTQLTVL ?
Reply: 2.45
